List of TGI values.
Tested on: UACC-257 melanoma
ASSAY_TEXT: NCI tumour cell line growth inhibition, 48 h

# query: TGI of entry `c1ccc2c(CSCc3cccc4ccccc34)cccc2c1`
> 100 µM

TGI lookup needed for `COc1ccc(C2(Cl)c3ccccc3N(c3ccccc3)c3ccccc32)cc1` , thanks.
3.67 µM

Would you mind telling me what TGI value was observed for N#CC12C(=O)NC(=O)C1(C#N)C1C=CC2CC1 (configuration not stated) ?
> 100 µM

Query (compound): COC(=O)[C@]12CC3C=CC1N(C3)C(CBr)c1c2n(S(=O)(=O)c2ccccc2)c2ccccc12 (some centres not stated) ; field requested: TGI
> 100 µM

// query TGI value for entry `O=C(CCC(=O)Nc1ccc(Cl)c(Cl)c1)Cc1nc2ccccc2o1`
> 100 µM

---
What does the record list as TGI for CCOC(OC(C)=O)[C@@H]1C=C[C@H](C)N(c2ccc([N+](=O)[O-])cc2)O1 (some centres not stated) ?
26.9 µM

Any idea what its TGI is? The compound is CNC(=O)C(C)NC(=O)C(Cc1ccccc1)NC(=O)c1ccccc1 (configuration not stated)
> 100 µM

* * *

Test system: U251 CNS
ASSAY_TEXT: NCI tumour cell line growth inhibition, 48 h
MEASURE_NAME: TGI

I'd like to know its TGI. The molecule in question is `COc1ccc(/C=C\c2cc(OC)c(OC)c(OC)c2)cc1OCC(=O)Nc1nc2ccc(F)cc2s1`
> 100 µM

Which measured TGI value corresponds to Cc1ccc(C)c(N2C(=O)C(=O)C(c3nc4ccccc4s3)/C(=N/N)C2=O)c1 (centres undefined) ?
> 100 µM

# query: TGI of entry `C=CC(=O)Nc1ccc(NC(=O)C=C)c2c1C(=O)c1ccccc1C2=O`
> 100 µM

Please turn your attention to the following entry.
Query: TGI; subject: C=CCNC(=O)NCCCCC(NC(C)=O)C(=O)NCc1ccccc1 (centres undefined)
> 100 µM

* * *

System: SK-MEL-28 melanoma
ASSAY_TEXT: NCI tumour cell line growth inhibition, 48 h
In this section, each of the compounds is paired with its reported TGI.

Lookup: TGI / SK-MEL-28 melanoma / `Cc1nc([N+](=O)[O-])cn1-c1nc2ccccn2c1[N+](=O)[O-]`
> 100 µM

Query for SK-MEL-28 melanoma: what TGI does the record show for `N#C/C(=C\c1cc(O)cc(O)c1)C(N)=O` ?
> 100 µM

Param readout = TGI; param system = SK-MEL-28 melanoma; param query = CNC(=O)C(C)NC(=O)C(Cc1ccccc1)NC(=O)c1ccccc1 (stereo not given) ; response: value
> 100 µM

---
Record lookup: for SK-MEL-28 melanoma, what TGI belongs to CC1(C)OC2C(CCP(=O)(O)O)OC(c3nc(C(N)=O)cs3)C2O1 (stereo not given) ?
> 100 µM

Find the measured TGI: item `O=c1c2cc(-c3ccccc3)cnc2sn1-c1ccc(Br)cc1` , target or system SK-MEL-28 melanoma.
> 100 µM

* * *

System: KM12 colon
ASSAY_TEXT: NCI tumour cell line growth inhibition, 48 h
MEASURE_NAME: TGI

The cases that follow already have their TGI on record.
# lookup: TGI of `CCn1cc2c(=O)n3ncn(-c4ccc(Br)cc4)c3nc2n1`
> 100 µM

What measured TGI goes with C=CSCCC(N)C(=O)O (stereo not drawn) ?
> 100 µM

Next up:
So what does the record say about TGI for `Oc1ccc(C=Nc2ccccc2O)cc1` ?
> 100 µM

* * *

Tested on: SK-MEL-5 melanoma
ASSAY_TEXT: NCI tumour cell line growth inhibition, 48 h
Quick list: TGI per entry.

# input molecule: `O=c1ccc2ccc(OP(=O)(O)O)cc2o1` ; wanted: its TGI
> 100 µM

Sample `Cc1ccc2c(c1)SC1=Nc3sc4cc(C)ccc4[n+]3CN12` — what was its TGI?
3.28 µM

Which value of TGI has been reported for N#Cc1ccc(C(O)C(F)(F)c2nc3ccccc3o2)cc1 (centres undefined) in the records?
> 100 µM

Value lookup for TGI; key = O=C1NC2c3c(I)sc(I)c3C(=O)C2O1 (centres undefined)
6.16 µM

# lookup: TGI of `O=C1Nc2c(ccc(Cl)c2Cl)/C1=C/c1cc(Br)c(O)c(Br)c1`
10.2 µM

Requested field: TGI. Item: `CC1=NN(c2nc(N)nc(CN3CCOCC3)n2)C(C)(C)C1`
> 100 µM

Can you look up the measured TGI of OC12c3ccccc3C1CCCCC2N1CCCC1 (centres undefined) for me?
> 100 µM

Which TGI reading was recorded for the molecule Cc1c2ccccc2c(C2C3C(=O)N(c4ccc(Br)cc4)C(=O)C3ON2C(C(N)=O)c2ccccc2)c2ccccc12 (centres undefined) ?
11.9 µM

Which TGI reading was recorded for the molecule CC1=C(C#N)C(=C(C#N)C#N)OC1(C)Cc1ccccc1 (centres undefined) ?
> 100 µM

Look at this molecule and give its reported TGI. `O=C(/C=C\c1ccccc1O)c1ccc(O)cc1O`
> 100 µM

* * *

Recorded measurements of TGI, one per entry
Tested on: BT-549 breast
ASSAY_TEXT: NCI tumour cell line growth inhibition, 48 h
Where a SMILES comes first, the peptide text is derived from it. Bridges are numbered along the chain shown (N, C = ends). [ ]: non-standard residue; d: D form. Aib = CC(C)(N)C(=O)O; βAla = NCCC(=O)O

Quick one: TGI of COc1ccc(S(=O)(=O)N2C(=O)CCC2C(=O)NC(N)=O)cc1 (centres undefined) ?
> 100 µM

I would be grateful if you could share the reported TGI for COc1cc2c(cc1OC)OC(c1c(OC)ccc(OC)c1O)CC2 (centres undefined) .
> 100 µM

Name the recorded TGI for `Cc1[nH]c(=O)nc2nc3cc(Cl)cc(Cl)c3c(NC(C)(CO)CO)c12` .
> 100 µM

Using the record for `CC(=O)OC[C@H]1CN(OC(C)=O)C[C@@H](n2cc(C)c(=O)[nH]c2=O)O1` , report its TGI.
> 100 µM

Query (molecule): `Oc1c(Br)cc(/C=C/c2ccnc(/C=C/c3cc(Br)c(O)c(Br)c3)c2)cc1Br` ; field requested: TGI
> 100 µM

***
Recorded TGI of CC1(C)NC(=O)C(NC(=O)C(N)CC(=O)O)CCCCNC(=O)CCNC1=O (centres undefined) (H-DK[Aib][βAla]; lactam 2-C; configuration not given here) , please.
> 100 µM

Returns the measured TGI for the input molecule. Input: COC(=O)[C@]12CC3C=CC1N(C3)C(CBr)c1c2n(S(=O)(=O)c2ccccc2)c2ccccc12 (some centres undefined)
> 100 µM

I have this molecule here, `Cc1ccc2c(c1)C(=C(C#N)C#N)CCCS2(=O)=O` , and I need its recorded TGI.
> 100 µM

# input molecule: `O=C(COc1ccc(Cl)c(Cl)c1)Nc1ccc[n+](Cc2ccc(S(=O)(=O)F)c(Cl)c2)c1` ; wanted: its TGI
> 100 µM

* * *

TGI overview
System: NCI-H226 lung
ASSAY_TEXT: NCI tumour cell line growth inhibition, 48 h
Where a SMILES comes first, the peptide text is derived from it. Bridges are numbered along the chain shown (N, C = ends). [ ]: non-standard residue; d: D form. Aib = CC(C)(N)C(=O)O; βAla = NCCC(=O)O

Guide cases for TGI, answers given:
I am curious: what TGI value has been reported for `CC(=O)OCCn1cnc2c(NCC=C(C)C)ncnc21` ?
> 100 µM

Returns the measured TGI for the input compound. Input: `Cc1cc(NC2=CC(=O)C(=O)c3ccccc32)no1`
35.9 µM

TGI for `Oc1ccc(C=Nc2ccccc2O)cc1` ?
> 100 µM

Fill in: TGI of FC1(F)[Se]C2C3CCC(C3)C2C1(F)F (stereo not given) is ___
> 100 µM

***
# lookup: TGI of CCOC1CN=C(Nc2cccc3ccccc23)S1 (stereo not given)
> 10 µM

Fill in: TGI of NC1N=C(c2ccc(Cl)cc2)C2=C(N1)c1ccccc1CC2 (stereo not given) is ___
54.3 µM

Give the measured TGI of C=CCNC(=O)NCCCCC(NC(C)=O)C(=O)NCc1ccccc1 (stereo not given) .
> 100 µM

Query: TGI; subject: COc1cc(/C=C2\CC3C4CC=C5C[C@@H](OC(C)=O)CC[C@]5(C)C4CC[C@]3(C)C2=O)ccc1OCCN1CCCCC1 (stereo not given in full)
28.6 µM

Fill in: TGI of CN1C(=O)C2(C)SC1(c1ccccc1)C1C(=O)N(c3ccccc3)C(=O)C12 (stereo not given) is ___
> 100 µM

Endpoint output: TGI of CC(=O)NC1C(OC(C)C(=O)NC(C)C(=O)NC(CCC(=O)NCCCCCNc2ccc([N+](=O)[O-])c3[nH]c4ccccc4c(=O)c23)C(N)=O)C(O)C(CO)OC1(C)OCc1ccccc1 (stereo not given) . Value?
> 100 µM

Recorded TGI for `CCc1nc(N)nc(N)c1-c1ccc(Cl)c([N+](=O)[O-])c1` , please?
> 100 µM

Query: TGI; subject: `NC(=O)NNC(=O)CCn1[nH]c(=O)c(Cl)c(Cl)c1=O`
> 100 µM

Fill blank: measured TGI of the compound CCCCN1C(=O)C2Cc3c([nH]c4ccccc34)C(c3cccc(O)c3)N2C1=O (stereo not given) is ____.
42.3 µM

Name the recorded TGI for `O=C(/C=C\c1ccccc1O)c1ccc(O)cc1O` .
> 100 µM

I'd like to know its TGI. The compound in question is CC1(C)NC(=O)C(NC(=O)C(N)CC(=O)O)CCCCNC(=O)CCNC1=O (stereo not given) (H-DK[Aib][βAla]; lactam 2-C; configuration not given here)
> 100 µM

If you can, please state the reported TGI value of `O=C(COc1ccc(Cl)c(Cl)c1)Nc1ccc[n+](Cc2ccc(S(=O)(=O)F)c(Cl)c2)c1` .
> 100 µM

Give its TGI value. Item: `CCOC(=O)C(C(=O)OCC)=C1SC(=Nc2ccccc2)C(=Nc2ccccc2)N1c1ccccc1`
> 100 µM

Can you look up the measured TGI of COC(=O)[C@]12CC3C=CC1N(C3)C(CBr)c1c2n(S(=O)(=O)c2ccccc2)c2ccccc12 (stereo not given in full) for me?
> 100 µM

Look up TGI for this compound: `CCn1cc2c(=O)n3ncn(-c4ccc(Br)cc4)c3nc2n1`
> 100 µM

Can you look up the measured TGI of `Cc1nc([N+](=O)[O-])cn1-c1nc2ccccn2c1[N+](=O)[O-]` for me?
> 100 µM

// returns reported TGI for input COc1ccc(C(c2ccccc2)(c2ccc(OC)cc2)N2C(=O)NC3C(CCCCC(=O)NCCCCCCOP(OCCC#N)N(C(C)C)C(C)C)SCC32)cc1 (stereo not given)
30.4 µM
